procedureSummary: Soluble expression in Escherichia coli BL21(DE3)
Assay type: physicochemical
conditionDetails: expression in E. coli BL21(DE3)
assayMetric: Solubility Soluble expression (%)

1. CID 210987: hetero-dimeric binding protein comprising SEQ ID NO: 10 and SEQ ID NO: 6 linked head-to-tail (protein, Col2 binding protein (dimer) 210987) IAAKFDEAQQAAFYEILHLPNLTEQQRNYFIQWLRDDPSVSLEVLGTAQRLNDSQAPKIAAKFDEAQQLAFYQILHLENLTEEQRNAFIQSLRDDPSVSLEVLGEAIKLNLSQAPK : 80
2. CID 211027: heterodimer with SEQ ID NO: 10 as N-terminal monomer (protein, Col2 binding protein (dimer) 211027) IAAKFDEAQQAAFYEILHLPNLTEQQRNYFIQWLRDDPSVSLEVLGTAQRLNDSQAPKIAAKFDEAQQLAFYQILHLENLTEEQRNAFIQSLRDDPSVSAEVLGEARKLNKSQAPK : 85
3. CID 211999: dimer of SEQ ID NO: 2 (dimer of directly joint monomers) (protein, Col2 binding protein (dimer of 211261) (CID211999)) IAAKFDEAQSAADSEILHLPNLTEQQRHYFRRWLSDDPSVSTHILTQAQHLNDDQAPKIAAKFDEAQSAADSEILHLPNLTEQQRHYFRRWLSDDPSVSTHILTQAQHLNDDQAPKSAWSHPQFEK : 100
4. CID 212001: tetramer of SEQ ID NO: 2 (protein, Col2 binding protein (tetramer of 211261) (CID212001)) IAAKFDEAQSAADSEILHLPNLTEQQRHYFRRWLSDDPSVSTHILTQAQHLNDDQAPKIAAKFDEAQSAADSEILHLPNLTEQQRHYFRRWLSDDPSVSTHILTQAQHLNDDQAPKIAAKFDEAQSAADSEILHLPNLTEQQRHYFRRWLSDDPSVSTHILTQAQHLNDDQAPKIAAKFDEAQSAADSEILHLPNLTEQQRHYFRRWLSDDPSVSTHILTQAQHLNDDQAPKSAWSHPQFEK : 100
5. CID 212000: dimer of SEQ ID NO: 2 (dimer with linker between the monomers) (protein, Col2 binding protein (dimer of 211261) (CID212000)) IAAKFDEAQSAADSEILHLPNLTEQQRHYFRRWLSDDPSVSTHILTQAQHLNDDQAPKGGGGSGGGGSGGGGSGGGGSIAAKFDEAQSAADSEILHLPNLTEQQRHYFRRWLSDDPSVSTHILTQAQHLNDDQAPKSAWSHPQFEK : 100
6. CID 211519: homodimer of SEQ ID NO: 11 (protein, Col2 binding protein (dimer) 211519) IAAKFDEAQQAAFYEILHLPNLTEQQRNYFIQWLRDDPSVSPTVLGTAQQLNDSQAPKIAAKFDEAQQAAFYEILHLPNLTEQQRNYFIQWLRDDPSVSPTVLGTAQQLNDSQAPK : 95

Where do these numbers come from? They come from patent US20230416345A1.
